target or system: UniProt P21917
Sequence (P21917 1-419): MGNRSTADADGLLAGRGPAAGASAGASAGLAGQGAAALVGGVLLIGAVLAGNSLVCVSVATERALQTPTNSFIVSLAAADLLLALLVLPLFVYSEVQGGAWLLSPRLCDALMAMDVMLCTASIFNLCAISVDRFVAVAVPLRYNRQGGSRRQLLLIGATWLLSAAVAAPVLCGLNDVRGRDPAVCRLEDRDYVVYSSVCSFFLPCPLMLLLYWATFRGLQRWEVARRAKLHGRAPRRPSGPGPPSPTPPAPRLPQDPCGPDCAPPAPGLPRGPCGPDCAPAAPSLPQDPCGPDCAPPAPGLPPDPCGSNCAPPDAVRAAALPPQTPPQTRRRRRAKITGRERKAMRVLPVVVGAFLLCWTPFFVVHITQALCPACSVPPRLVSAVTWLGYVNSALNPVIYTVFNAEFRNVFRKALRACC
observed property: pKi
API: returns pKi as number; meaning -log10 of concentration in mol/L.

[
  {
    "compound": "CCN(CCCNC(=O)c1ccc(-c2ccncc2)cc1)CCNC(=O)c1cc(Br)cc(OC)c1OC [21c]",
    "observed property": "pKi",
    "experimental value": 5.66
  }
]

## Task Give the observed pKi of CCCN(CCCNC(=O)c1ccc(-c2cccs2)cc1)CCNC(=O)c1cc(Br)cc(OC)c1OC [20a] for UniProt P21917.
## Result 6.03

## Task Tell me its pKi on UniProt P21917: CCN(CCCNC(=O)c1ccc(-c2ccsc2)cc1)CCNC(=O)c1cc(Br)cc(OC)c1OC [21g]
## Result 6.24

## Task Find pKi for CCN(CCCNC(=O)c1cc2ccccc2[nH]1)CCNC(=O)c1cc(Br)cc(OC)c1OC [21d] on UniProt P21917 and write it down.
## Result 6.62

## Task # return pKi of CCN(CCCNC(=O)c1cc2ccccc2n1C)CCNC(=O)c1cc(Br)cc(OC)c1OC [21j] (system: UniProt P21917)
## Result 6.06

## Task Report its pKi with UniProt P21917 as the test system: CCN(CCCNC(=O)c1ccc(-c2cccs2)cc1)CCNC(=O)c1cc(Br)cc(OC)c1OC
## Result 6.24

## Task Enter pKi (test system UniProt P21917) for CCN(CCCNC(=O)c1ccc2ccccc2c1)CCNC(=O)c1cc(Br)cc(OC)c1OC [21a]
## Result 6.42

## Task For UniProt P21917, give pKi of the listed compound: CCN(CCCNC(=O)c1ccsc1)CCNC(=O)c1cc(Br)cc(OC)c1OC [21i]
## Result 6.29

---

Target chain: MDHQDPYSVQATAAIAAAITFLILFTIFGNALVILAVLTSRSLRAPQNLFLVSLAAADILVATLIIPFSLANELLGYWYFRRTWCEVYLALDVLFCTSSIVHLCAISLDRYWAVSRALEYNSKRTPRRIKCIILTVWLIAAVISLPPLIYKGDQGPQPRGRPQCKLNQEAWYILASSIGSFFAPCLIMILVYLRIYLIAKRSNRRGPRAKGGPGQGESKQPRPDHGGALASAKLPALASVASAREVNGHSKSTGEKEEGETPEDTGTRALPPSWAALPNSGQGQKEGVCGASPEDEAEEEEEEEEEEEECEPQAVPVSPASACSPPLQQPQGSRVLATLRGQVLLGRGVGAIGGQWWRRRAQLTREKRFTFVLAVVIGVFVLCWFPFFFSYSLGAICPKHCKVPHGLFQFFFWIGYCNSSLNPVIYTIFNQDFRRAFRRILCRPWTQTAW
observed property: pKi
Keep in mind that pKi stands for -log10 of concentration in molar terms.

Below, each entry is followed by its recorded pKi result.
[
  {
    "molecule": "CCN(CCCNC(=O)c1ccc(-c2ccncc2)cc1)CCNC(=O)c1cc(Br)cc(OC)c1OC [21c]",
    "pKi": 6.04
  },
  {
    "molecule": "CCN(CCCNC(=O)c1cc2ccccc2n1C)CCNC(=O)c1cc(Br)cc(OC)c1OC [21j]",
    "pKi": 6.19
  },
  {
    "molecule": "CCN(CCCNC(=O)c1ccc(-c2ccsc2)cc1)CCNC(=O)c1cc(Br)cc(OC)c1OC [21g]",
    "pKi": 6.24
  }
]

Now, please, on to the next molecule.
## Task Item CCN(CCCNC(=O)c1ccc2ccccc2c1)CCNC(=O)c1cc(Br)cc(OC)c1OC [21a] : provide pKi
## Result 6.24
